Field: pIC50. Provide a value for each of the compounds that follow.
# subject_of_test: PLK4 (Homo sapiens)
# Sequence (O00444 whole entry): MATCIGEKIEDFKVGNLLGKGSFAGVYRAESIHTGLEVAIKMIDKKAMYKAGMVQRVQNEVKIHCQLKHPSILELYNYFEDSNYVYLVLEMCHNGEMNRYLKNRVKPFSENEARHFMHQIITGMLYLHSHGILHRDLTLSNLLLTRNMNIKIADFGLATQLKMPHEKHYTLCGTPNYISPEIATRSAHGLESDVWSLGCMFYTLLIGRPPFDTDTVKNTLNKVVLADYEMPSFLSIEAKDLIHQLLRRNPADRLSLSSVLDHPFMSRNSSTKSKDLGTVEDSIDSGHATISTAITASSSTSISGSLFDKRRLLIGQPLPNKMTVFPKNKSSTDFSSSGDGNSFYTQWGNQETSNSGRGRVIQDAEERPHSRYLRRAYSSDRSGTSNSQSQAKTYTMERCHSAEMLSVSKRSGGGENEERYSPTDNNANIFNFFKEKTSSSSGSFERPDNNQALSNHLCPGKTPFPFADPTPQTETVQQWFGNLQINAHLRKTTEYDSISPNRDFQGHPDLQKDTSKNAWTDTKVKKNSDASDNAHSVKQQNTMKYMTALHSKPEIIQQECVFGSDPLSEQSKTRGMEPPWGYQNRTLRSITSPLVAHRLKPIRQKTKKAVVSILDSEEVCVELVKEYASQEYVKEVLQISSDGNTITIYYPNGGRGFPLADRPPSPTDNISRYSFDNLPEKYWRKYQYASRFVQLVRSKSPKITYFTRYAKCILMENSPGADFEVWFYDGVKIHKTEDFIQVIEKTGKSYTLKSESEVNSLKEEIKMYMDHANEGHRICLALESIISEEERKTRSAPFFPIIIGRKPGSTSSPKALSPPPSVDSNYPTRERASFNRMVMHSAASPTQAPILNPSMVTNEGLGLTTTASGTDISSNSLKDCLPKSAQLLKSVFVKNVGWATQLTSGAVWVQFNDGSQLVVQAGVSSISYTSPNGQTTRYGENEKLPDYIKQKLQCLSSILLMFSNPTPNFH
# protocol_text: PLK4 NanoBRET target engagement assay
# assay_setup: HEK293 T cells transfected with PLK4 NanoLuc fusion vector; K-5 tracer; 2 hrs incubation
Scale explanation: pIC50 corresponds to minus log10 of a concentration expressed in moles per litre.

Item under review: Cc1cc(Nc2nc(N(C)c3c(F)cc(S(C)(=O)=O)cc3F)nc(-c3cn(C)c(C(F)F)n3)c2C2CC2)n[nH]1 . Reported pIC50?
8.40

Now this one: Cc1cc(Nc2nc(N(C)c3c(F)cc(S(C)(=O)=O)cc3F)nc(-c3cn[nH]c3)c2C2CC2)n[nH]1
8.00

Now this one: COc1c(Nc2cc(C)[nH]n2)nc(N(C)c2ccc(S(C)(=O)=O)cc2F)c(C)c1-c1cnn(C)c1
5.32

Now this one: COc1c(Nc2cc(C)[nH]n2)nc(N(C)c2ccc(S(=O)(=O)CC(C)C)cc2)nc1-c1cnn(C)c1
6.49

Now this one: Cc1cc(Nc2nc(N(C)c3c(F)cc(C(C)(C)O)cc3F)nc(-c3cn(C)cn3)c2C2CC2)n[nH]1
7.74

Now this one: Cc1cc(Nc2nc(N(C)c3c(F)cc(C4CC4)cc3F)nc(-c3cn(C)cn3)c2C2CC2)n[nH]1
7.59

Now this one: Cc1cc(Nc2nc(N(C)c3c(F)cc(S(C)(=O)=O)cc3F)nc(-c3nccn3C)c2C2CC2)n[nH]1
7.89

Now this one: Cc1cc(Nc2nc(N(C)c3ccc(S(C)(=O)=O)cc3F)nc(-c3cnn(C)n3)c2C2CC2)n[nH]1
7.31

Now this one: Cc1cc(Nc2nc(N(C)c3c(F)cc(S(C)(=O)=O)cc3F)nc(-c3cn[nH]c3C#N)c2C2CC2)n[nH]1
7.57

Now this one: Cc1cc(Nc2nc(N(C)c3c(F)cc(S(C)(=O)=O)cc3F)nc(-c3cn(CCO)cn3)c2C2CC2)n[nH]1
7.05

Now this one: Cc1cc(Nc2nc(N(C)c3c(F)cc(S(C)(=O)=O)cc3F)nc(-c3cnn(C)c3C(=O)N(C)C)c2C2CC2)n[nH]1
8.30

Now this one: Cc1cc(Nc2nc(N(C)c3c(F)cc(S(C)(=O)=O)cc3F)nc(-c3cnn(C)c3C(N)=O)c2C2CC2)n[nH]1
8.40

Now this one: Cc1cc(Nc2nc(N(C)c3cc(F)c(S(C)(=O)=O)cc3F)nc(-c3cn4c(n3)CCC4)c2C2CC2)n[nH]1
7.62

Now this one: COc1c(Nc2cc(C)[nH]n2)nc(Nc2ccc(S(C)(=O)=O)cc2)nc1-c1cnn(C)c1
6.26
